Below, each entry is listed alongside its reported IC50.
Target: Human sodium/glucose co-transporter type 1 (SGLT1) (Homo sapiens (Human), UniProt P13866)
Sequence (P13866 whole entry): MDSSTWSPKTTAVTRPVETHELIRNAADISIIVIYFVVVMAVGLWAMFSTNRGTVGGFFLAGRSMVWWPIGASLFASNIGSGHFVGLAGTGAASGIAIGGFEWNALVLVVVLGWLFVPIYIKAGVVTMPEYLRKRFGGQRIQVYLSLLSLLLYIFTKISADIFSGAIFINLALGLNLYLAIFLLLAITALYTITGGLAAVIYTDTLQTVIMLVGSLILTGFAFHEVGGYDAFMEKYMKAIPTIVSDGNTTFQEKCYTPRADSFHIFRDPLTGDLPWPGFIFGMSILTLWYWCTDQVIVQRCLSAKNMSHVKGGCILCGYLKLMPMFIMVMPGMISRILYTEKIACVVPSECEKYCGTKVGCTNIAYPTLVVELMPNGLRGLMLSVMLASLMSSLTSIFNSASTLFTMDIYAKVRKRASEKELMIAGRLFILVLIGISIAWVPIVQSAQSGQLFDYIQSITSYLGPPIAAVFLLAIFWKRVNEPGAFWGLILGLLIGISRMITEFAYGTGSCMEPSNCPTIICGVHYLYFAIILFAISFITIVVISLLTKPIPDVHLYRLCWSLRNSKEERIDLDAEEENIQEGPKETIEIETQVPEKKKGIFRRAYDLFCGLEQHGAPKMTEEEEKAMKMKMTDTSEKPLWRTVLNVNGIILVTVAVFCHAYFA
Experiment: In vitro human SGLT1 inhibition assay (14C-AMG uptake)
Type: cell-based
Conditions: HEK293 cells expressing human HA-SGLT1, 14C-AMG uptake
readout: IC50

1) CCC(=O)NCCOc1ccc(Cc2cc([C@@H]3O[C@H](SC)[C@@H](O)[C@H](O)[C@H]3O)ccc2Cl)cc1    < 10 nM
2) CS[C@H]1OC(c2ccc(C)c(Cc3ccc(OCCCNCC(C)(C)CO)cc3)c2)[C@H](O)[C@@H](O)[C@@H]1O (stereo partly drawn)    < 10 nM
3) CS[C@H]1O[C@@H](c2ccc(C)c(Cc3ccc(OCCCC(=O)NC(C)(C)C(=O)N(C)CCN(C)C)cc3)c2)[C@H](O)[C@@H](O)[C@@H]1O    < 100 nM
4) CS[C@H]1O[C@@H](c2ccc(C)c(Cc3ccc(CCCC(=O)NC(C)(C)C(=O)NC4CCN(C(=O)OC(C)(C)C)CC4)cc3)c2)[C@H](O)[C@@H](O)[C@@H]1O    < 10 nM
5) CS[C@H]1O[C@@H](c2ccc(C)c(Cc3ccc(OCCCC(=O)NC(C)(C)C(=O)N4CCN(C)CC4)cc3)c2)[C@H](O)[C@@H](O)[C@@H]1O    < 10 nM
6) CS[C@H]1O[C@@H](c2ccc(C)c(Cc3ccc(CCCCC(=O)N4CCN(C)CC4)cc3)c2)[C@H](O)[C@@H](O)[C@@H]1O    < 100 nM
7) CS[C@H]1O[C@@H](c2ccc(C)c(Cc3ccc(CCCCC(=O)NC(C)(C)CO)cc3)c2)[C@H](O)[C@@H](O)[C@@H]1O    < 10 nM
8) CS[C@H]1O[C@@H](c2ccc(Cl)c(Cc3ccc(OCCCC(=O)N[C@@H](CO)C(N)=O)cc3)c2)[C@H](O)[C@@H](O)[C@@H]1O    < 100 nM
9) CS[C@H]1O[C@@H](c2ccc(C)c(Cc3ccc(CCCCNC(C)(C)C(=O)N4CCN(C)CC4)cc3)c2)[C@H](O)[C@@H](O)[C@@H]1O    < 10 nM
10) CS[C@H]1O[C@@H](c2ccc(Cl)c(Cc3ccc(OCCNC4CCNCC4)cc3)c2)[C@H](O)[C@@H](O)[C@@H]1O    < 100 nM
11) CS[C@H]1O[C@@H](c2ccc(C)c(Cc3ccc(OCC(=O)NCC(C)(C)C(N)=O)cc3)c2)[C@H](O)[C@@H](O)[C@@H]1O    < 100 nM
12) CS[C@H]1O[C@@H](c2ccc(Cl)c(Cc3ccc(OCCNC(=O)OC(C)(C)C)cc3)c2)[C@H](O)[C@@H](O)[C@@H]1O    < 100 nM

Origin of values: patent US9688710B2
